# measurement.target: human recombinant HDAC6 (Homo sapiens)
# Sequence (Q9UBN7 whole entry): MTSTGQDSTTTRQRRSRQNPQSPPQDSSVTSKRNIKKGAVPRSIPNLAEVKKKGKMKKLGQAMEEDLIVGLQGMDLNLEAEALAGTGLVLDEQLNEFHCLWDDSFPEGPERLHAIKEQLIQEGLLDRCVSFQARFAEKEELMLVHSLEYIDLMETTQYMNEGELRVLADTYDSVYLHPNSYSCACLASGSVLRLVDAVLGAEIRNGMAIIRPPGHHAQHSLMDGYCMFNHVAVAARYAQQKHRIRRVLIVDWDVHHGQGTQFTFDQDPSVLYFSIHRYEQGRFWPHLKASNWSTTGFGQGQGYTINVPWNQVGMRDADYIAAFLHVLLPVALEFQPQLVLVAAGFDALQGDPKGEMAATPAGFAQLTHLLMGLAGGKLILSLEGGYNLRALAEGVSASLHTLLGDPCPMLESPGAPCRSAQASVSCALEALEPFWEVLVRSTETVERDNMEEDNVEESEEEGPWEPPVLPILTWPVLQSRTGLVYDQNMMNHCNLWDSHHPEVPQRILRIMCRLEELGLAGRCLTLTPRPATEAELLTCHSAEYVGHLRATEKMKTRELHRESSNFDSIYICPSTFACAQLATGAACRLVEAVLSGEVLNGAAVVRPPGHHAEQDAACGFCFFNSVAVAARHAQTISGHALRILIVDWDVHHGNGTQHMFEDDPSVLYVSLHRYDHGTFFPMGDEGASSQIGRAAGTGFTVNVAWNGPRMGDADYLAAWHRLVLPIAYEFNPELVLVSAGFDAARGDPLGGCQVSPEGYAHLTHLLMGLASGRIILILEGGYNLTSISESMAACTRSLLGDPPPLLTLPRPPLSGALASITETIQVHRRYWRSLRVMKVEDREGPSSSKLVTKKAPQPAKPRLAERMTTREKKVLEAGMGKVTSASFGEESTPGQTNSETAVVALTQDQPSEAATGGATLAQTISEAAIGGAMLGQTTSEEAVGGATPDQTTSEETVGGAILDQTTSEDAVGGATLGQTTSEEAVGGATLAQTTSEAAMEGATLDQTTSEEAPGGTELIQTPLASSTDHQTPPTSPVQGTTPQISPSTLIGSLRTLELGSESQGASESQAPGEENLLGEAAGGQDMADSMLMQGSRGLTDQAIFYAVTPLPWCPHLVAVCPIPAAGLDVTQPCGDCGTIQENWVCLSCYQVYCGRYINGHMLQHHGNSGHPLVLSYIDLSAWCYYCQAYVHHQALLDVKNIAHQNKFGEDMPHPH
# assay: HDAC6 enzyme activity inhibition (fluorimetric, in vitro)
# experimental.setup: samples at 0.1, 1, 10, 100 and 1000 nM
Exam item: assign 1 to entries whose IC50 is below 90 nM and 0 to entries at or above 90 nM. Note that a value of exactly 90 nM receives 0.

Worked cases, answers included:
1. CC(=O)N=S1(=O)CCN(C(=O)N(Cc2ccc(-c3nnc(C(F)F)o3)cn2)c2ccc(F)c(F)c2)CC1 [Compound 30] :: 1
2. N=S1(=O)CCN(S(=O)(=O)N(Cc2ccc(-c3nnc(C(F)F)o3)cn2)c2cccc(Cl)c2)CC1 [Compound 71] :: 1

Quick check: does N=S1(=O)CCC(N2C[C@@H]3C[C@H]2CN3C(=O)N(Cc2ccc(-c3nnc(C(F)F)o3)cn2)c2ccccc2F)CC1 (stereo partly shown) [Compound 48] have IC50 under 90 nM?
0

Also need Cn1ccc2cc(N(Cc3ccc(-c4nnc(C(F)F)o4)cn3)C(=O)N3CCS(=N)(=O)CC3)ccc21 [Compound 14] , thanks.
0

Now consider N=S1(=O)CCN(C(=O)N(Cc2ccc(-c3nnc(C(F)F)o3)cn2)c2ccccc2)CC1 [Compound 3] and answer again.
0

Subsequent entry: N=S1(=O)CC2(CN(C(=O)N(Cc3ccc(-c4nnc(C(F)F)o4)cc3F)c3ccccc3)C2)C1 [Compound 92]
0

Check N=S1(=O)CCN(C(=O)N(Cc2ccc(-c3nnc(C(F)F)o3)cc2F)c2ccc(Br)cc2)CC1 [Compound 20] too.
1

Cited source: patent US20260125370A1
